- Tested on: Inhibin beta A chain (activin A)
- EXPERIMENT_NOTES: INHBA (activin A) binders on microarrays, primary screen, biochemical, small-molecule microarray, 635 nm fluorescence scan (AID 1107);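 also: mouse activin A protein probed at 4.33 µg/mL on printed slides; score merges bound-protein fluorescence near 667 nm with spot signal-to-noise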
- EXPERIMENTAL_CONTEXT: small-molecule microarray binding, higher = more signal
Use label 1 when the recorded composite z-score is no lower than 0.8; use label 0 when it is lower.

CN(C)CCCC[C@@H]1NC(=O)[C@H]2C[C@@H](C(=O)NCCCCCNC(=O)CS)[C@@H](c3cccc(OCCO)c3)N2C1=O | label 0
COCCOC(=O)N1C(=O)[C@@]2(c3cc(C#Cc4ccc(OC)cc4)ccc31)[C@H](C(=O)N1CCCCCCC1)[C@H]1C(=O)O[C@H](c3ccccc3)[C@H](c3ccccc3)N1[C@@H]2c1ccc(OCCO)cc1 | label 1
COc1ccc(CCNC(=O)[C@@H]2c3ccccc3C(=O)N(C3Cc4ccccc4C3)[C@H]2c2ccc(CO)cc2)cc1 | label 1
COCCCNC(=O)C1N=C(c2ccc(OCCCO)cc2)N(c2ccccc2)O1 (configuration not stated) | label 0
[N-]=[N+]=Nc1ccccc1C[C@@]1(C(=O)NCCN2CCOCC2)N=C(c2ccc(OCCCO)cc2)O[C@@H]1c1ccccc1 | label 1

Incoming: Can O=C1C2C=CC(C(O)c3c(F)cccc3Cl)N(Nc3ccccc3)C2C(=O)N1c1ccccc1 (configuration not stated) be said to have composite z-score at or above 0.8?
Outgoing: label 0

Incoming: Can CCCC[C@@H]1C[C@H]1[C@@H](NC(=O)c1ccco1)c1ccc(Cl)cc1 be said to have composite z-score at or above 0.8?
Outgoing: label 1
